Source of measurements: patent US5602102A

molecular target: human dipeptidyl peptidase-I (Homo sapiens); assay: Effect of protease inhibitors on DPPI activity (purified enzyme); format: biochemical; design: Human DPPI is now established to constitute a 200,000 Da glycoprotein with 24,000 Da subunits; from tissue; host or cells: human cadaveric spleen; conditions: screening conditions pH 5.5

# compound, effect on DPPI activity (in words)
data = [
    ("COC([CH2][Hg+])CNC(=O)c1ccccc1OCC(=O)O.[OH-] (stereo not drawn) [Mersalyl acid]", "potently inhibited"),
    ("CCN1C(=O)C=CC1=O [N-Ethylmaleimide]", "inhibited"),
    ("Cc1ccc(S(=O)(=O)NC(CCCCN)C(=O)CCl)cc1 (stereo not drawn) [TLCK]", "potently inhibited"),
    ("CC(C)C[C@H](NC(=O)[C@@H](O)[C@H](N)Cc1ccccc1)C(=O)O [Bestatin]", "no effect"),
    ("c1ccc(SSc2ccccn2)nc1 [2,2'-Dithiodipyridine]", "inhibited"),
    ("O=S(=O)(F)Cc1ccccc1 [PMSF, phenylmethylsulfonylfluoride]", "no effect"),
]
